Record form. Attribute: NMR signal, conc 2. Fill in for each entry.
System: human Fab of κ-type
Assay: STD-NMR binding test (saturation transfer difference NMR screening)
Parameters: key: 0 no; 1 weak; 2 strong signal
Conditions: 100 nM protein; 0.5 mM ligand
Procedure: All NMR experiments were performed at 298 K on a Bruker Avance 500 MHz spectrometer. […] The two spectra are recorded in the same experiment in an interleaved fashion. […] Under such conditions, at higher protein concentrations the weak to medium binders are detected, whereas at lower protein concentrations only medium binders are detected. […]
Where a name gives a salt, the structure may show the parent alone.
Give the figure only, with no unit attached.

# return recorded NMR signal, conc 2 for entry CC(C)=CC1=C(O)C(=O)c2ccccc2C1=O
1

# return recorded NMR signal, conc 2 for entry c1ccc(-c2nnc3ccccc3n2)cc1
1

# return recorded NMR signal, conc 2 for entry c1ccc(CCn2cc(-c3ccncc3)cn2)cc1
0

# return recorded NMR signal, conc 2 for entry CCn1ccnc1CC1COc2ccccc2O1 (stereo not shown) [AB_0001070, imiloxan hydrochloride]
1

# return recorded NMR signal, conc 2 for entry N#CCc1ccc(C(=O)c2ccccc2F)s1
2

# return recorded NMR signal, conc 2 for entry COC(=O)NC(=O)c1nc(-c2ccccc2)c(C)o1
0

# return recorded NMR signal, conc 2 for entry N=c1sccn1CC(=O)c1ccc2ccccc2c1
0

# return recorded NMR signal, conc 2 for entry O=C1C=CC(=O)N1c1cccc(Cl)c1 [AB_0001090, n-(3-chlorophenyl)-maleimide]
0

# return recorded NMR signal, conc 2 for entry Cc1cc(C)nc(SCC(=O)Nc2ccc(F)c(Cl)c2)n1
0

# return recorded NMR signal, conc 2 for entry COC(=O)c1ccc2ccccc2c1O [AB_0001200, methyl 1-hydroxy-2-naphthoate]
0

# return recorded NMR signal, conc 2 for entry O=C1CN(c2ccccc2)C(=O)N1c1ccccc1
2

# return recorded NMR signal, conc 2 for entry COc1ccc(CC(C)=O)cc1Br
2

# return recorded NMR signal, conc 2 for entry Clc1ccc(OCc2noc(CSc3ccccn3)n2)cc1
1

# return recorded NMR signal, conc 2 for entry O=Cc1cccc(C(F)(F)F)c1Cl
0

# return recorded NMR signal, conc 2 for entry OCC(Oc1ccccc1)c1ccccc1 (stereo not shown)
1

# return recorded NMR signal, conc 2 for entry OC(CNCc1ccccc1)C(F)(F)F (stereo not shown)
0

# return recorded NMR signal, conc 2 for entry OC(CNCc1ccc(Cl)cc1)CSc1ccccc1 (stereo not shown)
0

# return recorded NMR signal, conc 2 for entry CN(C)C(=O)N(C)c1ccc(Cl)c(Cl)c1
2

# return recorded NMR signal, conc 2 for entry COC(=O)C1OC1c1cc(Cl)ccc1OC (stereo not shown)
1

###

Test system: human Fab of κ-type
Experiment: STD-NMR binding test (saturation transfer difference NMR screening)
Set-up: key: 0 no; 1 weak; 2 strong signal
Conditions: 20 nM protein; 0.5 mM ligand
Record form. Attribute: NMR signal, conc 3. Fill in for each entry.
Give the figure only, with no unit attached.

# return recorded NMR signal, conc 3 for entry CN(C)C(=O)N(C)c1ccc(Cl)c(Cl)c1
1

# return recorded NMR signal, conc 3 for entry N#CCc1ccc(C(=O)c2ccccc2F)s1
2

# return recorded NMR signal, conc 3 for entry COc1ccc(CC(C)=O)cc1Br
0

# return recorded NMR signal, conc 3 for entry O=C1CN(c2ccccc2)C(=O)N1c1ccccc1
1

###

Tested on: human Fab of κ-type
Test: STD-NMR binding test (saturation transfer difference NMR screening)
Set-up: key: 0 no; 1 weak; 2 strong signal
Settings: 500 nM protein; 0.5 mM ligand
Method: All NMR experiments were performed at 298 K on a Bruker Avance 500 MHz spectrometer. […] The two spectra are recorded in the same experiment in an interleaved fashion. […] Under such conditions, at higher protein concentrations the weak to medium binders are detected, whereas at lower protein concentrations only medium binders are detected. […]
Record form. Attribute: NMR signal, conc 1. Fill in for each entry.
Give the figure only, with no unit attached.

# return recorded NMR signal, conc 1 for entry O=C1C=C(Cl)C(=O)N1c1ccccc1
0

# return recorded NMR signal, conc 1 for entry COC(=O)NC(=O)c1nc(-c2ccccc2)c(C)o1
2

# return recorded NMR signal, conc 1 for entry COc1ccc(CC(C)=O)cc1Br
2

# return recorded NMR signal, conc 1 for entry O=C1C(=Cc2ccccc2)C(=O)c2ccccc21
0

# return recorded NMR signal, conc 1 for entry CCCCc1c(O)nc2ccccn2c1=O
0

# return recorded NMR signal, conc 1 for entry O=C1c2ccncc2C(=O)N1c1ccc(Cl)cc1
0

# return recorded NMR signal, conc 1 for entry Cc1cc(C)nc(SCC(=O)Nc2ccc(F)c(Cl)c2)n1
1

# return recorded NMR signal, conc 1 for entry COC(=O)c1ccc2ccccc2c1O [AB_0001200, methyl 1-hydroxy-2-naphthoate]
1

# return recorded NMR signal, conc 1 for entry c1ccc(-c2nnc(-c3ccccn3)nn2)nc1
0

###

Test system: human Fab of κ-type
Assay: STD-NMR binding test (saturation transfer difference NMR screening)
Parameters: key: 0 no; 1 weak; 2 strong signal
Details: 500 nM protein; 0.5 mM ligand
Structures can show the parent of a compound that is named as a salt.
Record form. Attribute: NMR signal, conc 1. Fill in for each entry.

# return recorded NMR signal, conc 1 for entry O=C(CC1OC(=O)c2ccccc21)c1ccccn1 (centres unmarked)
0

# return recorded NMR signal, conc 1 for entry c1ccc(CCn2cc(-c3ccncc3)cn2)cc1
2

# return recorded NMR signal, conc 1 for entry CC1=NN(c2cccc(Cl)c2)C(=O)C1
0

# return recorded NMR signal, conc 1 for entry Fc1cc(F)cc(Cc2nc(-c3cccs3)no2)c1
1

# return recorded NMR signal, conc 1 for entry CCn1ccnc1CC1COc2ccccc2O1 (centres unmarked) [AB_0001070, imiloxan hydrochloride]
1

###

Tested on: human Fab of κ-type
Test: STD-NMR binding test (saturation transfer difference NMR screening)
Set-up: key: 0 no; 1 weak; 2 strong signal
Conditions: 500 nM protein; 0.5 mM ligand
measurement.label: NMR signal, conc 1
Give the figure only, with no unit attached.

# return recorded NMR signal, conc 1 for entry Clc1ccc(COn2ccnc2)cc1Cl [AB_0001150, 1-[(3,4-dichlorobenzyl)oxy]-1h-imidazole]
2

# return recorded NMR signal, conc 1 for entry O=C1SC(Br)C(=O)N1c1ccccc1 (centres unmarked)
0

# return recorded NMR signal, conc 1 for entry c1ccc(-c2nnc3ccccc3n2)cc1
1

# return recorded NMR signal, conc 1 for entry O=C(c1cccs1)c1cnc2ccccn2c1=O
1

# return recorded NMR signal, conc 1 for entry O=C(Nc1ccc(F)cc1)Oc1noc(-c2ccccc2)n1
0

# return recorded NMR signal, conc 1 for entry OC(CNCc1ccc(Cl)cc1)CSc1ccccc1 (centres unmarked)
1

# return recorded NMR signal, conc 1 for entry OC(CNCc1ccc(Cl)cc1Cl)C(F)(F)F (centres unmarked)
0

# return recorded NMR signal, conc 1 for entry O=C(c1ccc2ccccc2c1)n1ccnc1
0

###

Test system: human Fab of κ-type
Test: STD-NMR binding test (saturation transfer difference NMR screening)
Design: key: 0 no; 1 weak; 2 strong signal
Conditions: 100 nM antibody
Record form. Attribute: NMR signal, Conc 2 (directed library). Fill in for each entry.
Give the figure only, with no unit attached.

Check human Fab of κ-type data and give NMR signal, Conc 2 (directed library) for COC(=O)CCCN(C)C(=O)N(C)c1ccc(F)c(F)c1 .
1

Check human Fab of κ-type data and give NMR signal, Conc 2 (directed library) for COC(=O)CCCN(C)C(=O)N(C)c1ccccc1 .
0

Check human Fab of κ-type data and give NMR signal, Conc 2 (directed library) for COC(=O)CCCN(C)C(=O)N(C)c1ccc(OC)c(F)c1 .
1

Check human Fab of κ-type data and give NMR signal, Conc 2 (directed library) for COC(=O)[C@H]1CCCN1C(=O)N(C)c1ccc(Cl)c(Cl)c1 (single isomer, unassigned) .
2

Check human Fab of κ-type data and give NMR signal, Conc 2 (directed library) for COC(=O)CCCN(C)C(=O)N(C)c1ccc(OC)c(Cl)c1 .
1

Check human Fab of κ-type data and give NMR signal, Conc 2 (directed library) for COC(=O)CCCNC(=O)N(C)c1ccc(Cl)c(Cl)c1 .
0

Check human Fab of κ-type data and give NMR signal, Conc 2 (directed library) for COC(=O)CCCN(C)C(=O)N(C)c1ccc(Cl)c(Cl)c1 .
2

###

Tested on: human Fab of κ-type
Assay: STD-NMR binding test (saturation transfer difference NMR screening)
Design: key: 0 no; 1 weak; 2 strong signal
Conditions: 500 nM antibody
measurement.label: NMR signal, Conc 1 (directed library)
Give the figure only, with no unit attached.

# return recorded NMR signal, Conc 1 (directed library) for entry COC(=O)CCCN(C)C(=O)N(C)c1ccc(OC)c(F)c1 [AB_0001252]
1

# return recorded NMR signal, Conc 1 (directed library) for entry COC(=O)[C@H]1CCCN1C(=O)N(C)c1ccc(Cl)c(Cl)c1 (single isomer, unassigned) [AB_0003290]
2

# return recorded NMR signal, Conc 1 (directed library) for entry COC(=O)CCCN(C)C(=O)N(C)c1ccc(F)c(F)c1 [AB_0001258]
1

# return recorded NMR signal, Conc 1 (directed library) for entry COC(=O)CCCNC(=O)N(C)c1ccc(Cl)c(Cl)c1 [AB_0001257]
2

# return recorded NMR signal, Conc 1 (directed library) for entry COC(=O)CCCN(C)C(=O)N(C)c1ccccc1 [AB_0001251]
0

# return recorded NMR signal, Conc 1 (directed library) for entry COC(=O)CCCN(C)C(=O)N(C)c1ccc(OC)c(Cl)c1 [AB_0001253]
2

# return recorded NMR signal, Conc 1 (directed library) for entry COC(=O)CCCN(C)C(=O)N(C)c1ccc(Cl)c(Cl)c1 [AB_0001255]
2
